This collection of values is drawn from PubChem BioAssay (NCI).

Test: NCI Yeast Anticancer Drug Screen. Data for the mec2-1 strain (AID 157)
Conditions: S. cerevisiae mec2-1 strain, at 3.7 µM, active compounds read high
Compounds without any hit were thinned out: in the full panel of roughly 79,000, 15% have a hit.
experimental.endpoint: growth inhibition (%)
Could you give me the number in %? Just the number is fine.

Q. Look up growth inhibition of `NC(=NCc1ccccc1)N/N=C\c1ccnc2ccccc12` and report it.
A. 0

Q. Look up growth inhibition of `CC[n+]1ccc2c(C)c3[nH]c4ccc(O)cc4c3c(C)c2c1` and report it.
A. -1

###

Experiment: NCI Yeast Anticancer Drug Screen. Data for the sgs1 strain (AID 173);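 further: 0% = growth of vehicle-only control cultures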
Conditions: S. cerevisiae sgs1 mutant, at 100.0 µM, active compounds read high
Compounds without any hit were thinned out: in the full panel of roughly 79,000, 15% have a hit.
experimental.endpoint: growth inhibition (%)
Could you give me the number in %? Just the number is fine.

{"compound": "CCOC(=O)C(NC(=O)c1ccccc1)(N1CCN(c2cc3c(cc2F)c(=O)c(C(=O)O)cn3C2CC2)CC1)C(F)(F)F (centres undefined)", "u": "%", "growth inhibition": 2}

Q. Look up growth inhibition of `NNc1c(F)c(F)cc(F)c1F` and report it.
A. 66

Q. Look up growth inhibition of `COc1cc(C(=O)/C=C/c2ccccc2O)ccc1O` and report it.
A. 99

Q. Look up growth inhibition of `CN(C)CCn1c2c3ccccc3ccc2c2oc(=O)c3ccccc3c21` and report it.
A. 92

Q. Look up growth inhibition of `c1ccc2c(c1)c1ncccc1c1nccnc21` and report it.
A. 21

Q. Look up growth inhibition of `Nc1ccc2c(c1)C(=O)c1cccc(N)c1C2=O` and report it.
A. 85

Q. Look up growth inhibition of O=C1C2C(C(=O)N1c1ccc(OCc3ccccc3)cc1)C1c3ccccc3C2C2CCCCN21 (centres undefined) and report it.
A. 94

Q. Look up growth inhibition of `O=C(/C=C\c1ccc(Cl)cc1Cl)c1cccs1` and report it.
A. 45

Q. Look up growth inhibition of `O=[N+]([O-])C(=C(Sc1ccccc1)Sc1ccccc1)C(Cl)=C(Cl)Cl` and report it.
A. 78

Q. Look up growth inhibition of `COc1ccc(-c2cn(-c3ccc(I)cc3)c3ncnc(N)c23)cc1` and report it.
A. 29
